Consider the following molecules and their measured Conc. (μg/mL) at 48 hours readings.
experimental protocol: Solubility in water at ambient temperature
Format: physicochemical
condition notes: water, ambient temperature, shaken 48 hours; free base-equivalent value, HPLC/UV
Report the value in µg/mL with no unit label.

In: Answer with the recorded Conc. (μg/mL) at 48 hours of `C=CC(=O)Nc1cc(C)ccc1Nc1nc(Nc2cc(OC)ncc2C)ncc1C(F)(F)F.Cl` only.
Out: 134.08

In: Answer with the recorded Conc. (μg/mL) at 48 hours of C=CC(=O)Nc1cc(C)ccc1Nc1nc(Nc2cc(OC)ncc2C)ncc1C(F)(F)F [Compound 1] only.
Out: 0.05

Each recorded value in this set is attributed to patent US10202364B2.
